# Tested on: histamine-induced bronchoconstriction
# assay.name: Armitage test: histamine-induced bronchoconstriction test in guinea pigs
# Type: in vivo
# conditions.used: Cavia porcellus, po; guinea pig p.o., dose 5 mg/kg; read-out: Armitage test % protection
Catalogue of inhibition in vivo at 5 mg/kg readings, one per entry.
// units = %; emit number, no label

// solved cases for inhibition in vivo at 5 mg/kg follow
O=C1c2ccccc2CN1CCCN1CCC(OC(c2ccccc2)c2ccccc2)CC1 :: 82
CC(C)C1C(=O)N(CCN2CCC(OC(c3ccccc3)c3ccccc3)CC2)c2ccccc21 (stereo not shown) :: 50
COc1cc2c(cc1OC)C(=O)N(CCCN1CCC(OC(c3ccccc3)c3ccccc3)CC1)C2 :: 79
O=C1Cc2ccccc2N1CCN1CCC(SC(c2ccccc2)c2ccccc2)CC1 :: 60
O=C1c2ccc(F)cc2CN1CCCN1CCC(OC(c2ccccc2)c2ccccc2)CC1 :: 68
O=C1c2ccc(F)cc2CN1CCN1CCC(OC(c2ccccc2)c2ccccc2)CC1 :: 68
O=C1Cc2ccccc2N1CCN1CCC(C(c2ccc(F)cc2)c2ccc(F)cc2)CC1 :: 78
CC1(C)C(=O)N(CCN2CCC(OC(c3ccccc3)c3ccccc3)CC2)c2ccccc21 :: 70
O=C1c2cc(F)ccc2CN1CCN1CCC(OC(c2ccccc2)c2ccccc2)CC1 :: 43

Now consider a different molecule.
Return inhibition in vivo at 5 mg/kg (reported value) for this molecule: `O=C1Cc2cc(F)ccc2N1CCCN1CCC(OC(c2ccccc2)c2ccccc2)CC1` 75
